Recorded IC50, one value per entry.
# Experimental target: affinity purified β2GPI-dependent antiphospholipid antibody
# Measurement notes: Competitive inhibition ELISA: recombinant β2GPI proteins compete for antibody binding to coated full length recombinant β2GPI
# Design: species or system human
# Assay conditions: Ab 7101; read-out: 50% (concentration to give 50% inhibition)

Known IC50 results, listed for orientation:
>>> test_result("recombinant β2GPI domain 5 with GlyHis6 (----5) (protein) GRASCKLPVKKATVVYQGERVKIQEKFKNGMLHGDKVSFFCKNKEKKCSYTEDAQCIDGTIEVPKCFKEHSSLAFWKTDASDVKPCGHHHHHH")
"> 47 µM"
>>> test_result("-2345: recombinant β2GPI deletion mutant with domains 2-5 (protein) GRTPRVCPFAGILENGAVRYTTFEYPNTISFSCNTGFYLNGADSAKCTEEGKWSPELPVCAPIICPPPSIPTFATLRVYKPSAGNNSLYRDTAVFECLPQHAMFGNDTITCTTHGNWTKLPECREVKCPFPSRPDNGFVNYPAKPTLYYKDKATFGCHDGYSLDGPEEIECTKLGNWSAMPSCKASCKLPVKKATVVYQGERVKIQEKFKNGMLHGDKVSFFCKNKEKKCSYTEDAQCIDGTIEVPKCFKEHSSLAFWKTDASDVKPCGHHHHHH")
"> 57 µM"
>>> test_result("12---: recombinant β2GPI deletion mutant with domains 1 and 2 (protein) GRTCPKPDDLPFSTVVPLKTFYEPGEEITYSCKPGYVSRGGMRKFICPLTGLWPINTLKCTPRVCPFAGILENGAVRYTTFEYPNTISFSCNTGFYLNGADSAKCTEEGKWSPELPVCAPIIGHHHHHH")
"> 10 µM"
>>> test_result("1234-: recombinant β2GPI deletion mutant with domains 1, 2, 3, 4 (protein) GRTCPKPDDLPFSTVVPLKTFYEPGEEITYSCKPGYVSRGGMRKFICPLTGLWPINTLKCTPRVCPFAGILENGAVRYTTFEYPNTISFSCNTGFYLNGADSAKCTEEGKWSPELPVCAPIICPPPSIPTFATLRVYKPSAGNNSLYRDTAVFECLPQHAMFGNDTITCTTHGNWTKLPECREVKCPFPSRPDNGFVNYPAKPTLYYKDKATFGCHDGYSLDGPEEIECTKLGNWSAMPSCGHHHHHH")
"> 8 µM"

Sure, the documented IC50 for ---45: recombinant β2GPI deletion mutant with domains 4, 5 (protein) GREVKCPFPSRPDNGFVNYPAKPTLYYKDKATFGCHDGYSLDGPEEIECTKLGNWSAMPSCKASCKLPVKKATVVYQGERVKIQEKFKNGMLHGDKVSFFCKNKEKKCSYTEDAQCIDGTIEVPKCFKEHSSLAFWKTDASDVKPCGHHHHHH is > 40 µM

Sure, the documented IC50 for 123--: recombinant β2GPI deletion mutant with domains 1, 2, 3 (protein) GRTCPKPDDLPFSTVVPLKTFYEPGEEITYSCKPGYVSRGGMRKFICPLTGLWPINTLKCTPRVCPFAGILENGAVRYTTFEYPNTISFSCNTGFYLNGADSAKCTEEGKWSPELPVCAPIICPPPSIPTFATLRVYKPSAGNNSLYRDTAVFECLPQHAMFGNDTITCTTHGNWTKLPECGHHHHHH is 3 µM

Sure, the documented IC50 for --345: recombinant β2GPI deletion mutant with domains 3, 4, 5 (protein) GRIICPPPSIPTFATLRVYKPSAGNNSLYRDTAVFECLPQHAMFGNDTITCTTHGNWTKLPECREVKCPFPSRPDNGFVNYPAKPTLYYKDKATFGCHDGYSLDGPEEIECTKLGNWSAMPSCKASCKLPVKKATVVYQGERVKIQEKFKNGMLHGDKVSFFCKNKEKKCSYTEDAQCIDGTIEVPKCFKEHSSLAFWKTDASDVKPCGHHHHHH is > 50 µM
